Data credit: patent US8420851B2

# system under test: TR-β (Homo sapiens, UniProt P10828)
# Sequence (P10828 1-461): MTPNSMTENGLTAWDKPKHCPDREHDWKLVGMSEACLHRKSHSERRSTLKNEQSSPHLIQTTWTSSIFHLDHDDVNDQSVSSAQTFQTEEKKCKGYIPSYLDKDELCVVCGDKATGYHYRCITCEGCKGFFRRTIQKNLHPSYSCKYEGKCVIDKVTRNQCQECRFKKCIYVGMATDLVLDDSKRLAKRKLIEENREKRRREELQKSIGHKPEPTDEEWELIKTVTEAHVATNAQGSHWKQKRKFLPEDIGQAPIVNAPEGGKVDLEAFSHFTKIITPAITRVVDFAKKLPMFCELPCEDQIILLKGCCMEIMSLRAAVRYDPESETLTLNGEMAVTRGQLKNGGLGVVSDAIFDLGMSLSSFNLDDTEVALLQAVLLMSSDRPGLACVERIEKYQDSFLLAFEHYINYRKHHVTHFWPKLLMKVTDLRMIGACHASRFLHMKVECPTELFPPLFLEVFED
# protocol details: In vitro TR-β activity (in-house protocol)
# Assay type: cell-based
# measurement conditions: Conc. 100 nM; read-out: TR-β Fold Induction w.r.t T3(100 nm)
Below: a set of entries, each annotated with reported fold induction at 0.1 µM.
measured endpoint: fold induction at 0.1 µM

compound	measured endpoint	data value
Cc1cc(N(CC(=O)O)C(=O)Oc2ccc(O)cc2)cc(C)c1Oc1ccc(O)c(C(C)C)c1 [Example 42]	fold induction at 0.1 µM	91.9
CCOC(=O)N(CC(=O)O)c1cc(Cl)c(Oc2ccc(O)c(C(=O)c3ccc(C(C)(C)C)cc3)c2)c(Cl)c1 [Example 24]	fold induction at 0.1 µM	100
O=C(O)CN(CC(=O)O)c1cc(Cl)c(Oc2ccc(O)c(C(=O)c3ccc(Cl)cc3)c2)c(Cl)c1 [Example 28]	fold induction at 0.1 µM	45.4
Cc1cc(N(CC(=O)O)CC(=O)O)cc(C)c1Oc1ccc(O)c(C(C)C)c1 [Example 37]	fold induction at 0.1 µM	125

###

# system under test: TR-α (Homo sapiens)
# Sequence (P10827 1-410 isoform P10827-2): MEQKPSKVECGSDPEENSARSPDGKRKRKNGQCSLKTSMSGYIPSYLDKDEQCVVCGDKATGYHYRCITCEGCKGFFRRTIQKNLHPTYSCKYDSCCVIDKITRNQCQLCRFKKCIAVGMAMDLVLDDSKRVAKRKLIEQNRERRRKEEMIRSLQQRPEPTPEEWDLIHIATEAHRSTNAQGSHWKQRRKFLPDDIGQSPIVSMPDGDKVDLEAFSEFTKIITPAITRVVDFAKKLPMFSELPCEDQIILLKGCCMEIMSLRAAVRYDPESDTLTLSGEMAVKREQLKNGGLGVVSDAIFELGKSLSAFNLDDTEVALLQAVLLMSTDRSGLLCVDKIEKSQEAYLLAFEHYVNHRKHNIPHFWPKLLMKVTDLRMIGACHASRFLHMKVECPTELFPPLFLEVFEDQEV
# protocol details: In vitro TR-α activity (in-house protocol)
# Format: cell-based
# measurement conditions: Conc. 1000 nM
# TR-α Fold Induction w.r.t T3(100 nm) >= 60 gives Fulfilled, anything below gives Not fulfilled

compound	group
CCOC(=O)N(CC(=O)O)c1cc(Cl)c(Oc2ccc(O)c(C(=O)c3ccc(Cl)cc3)c2)c(Cl)c1	Not fulfilled
O=C(O)CN(C(=O)Oc1ccc(O)cc1)c1cc(Cl)c(Oc2ccc(O)c(S(=O)(=O)N3CCCCC3)c2)c(Cl)c1	Fulfilled
CCOC(=O)N(CC(=O)O)c1cc(Cl)c(Oc2ccc(O)c(C(=O)c3cccc(Cl)c3)c2)c(Cl)c1	Not fulfilled
CCOC(=O)N(CC(=O)O)c1cc(Cl)c(Oc2ccc(O)c(C(C)(C)C)c2)c(Cl)c1	Fulfilled
Cc1cccc(C(=O)c2cc(Oc3c(Cl)cc(N(CC(=O)O)C(=O)Oc4ccc(O)cc4)cc3Cl)ccc2O)c1	Not fulfilled
O=C(O)CN(C(=O)Oc1ccc(O)cc1)c1cc(Br)c(Oc2ccc(O)c(S(=O)(=O)NC3CC4CCC3C4)c2)c(Br)c1 (stereo not drawn)	Not fulfilled
O=C(O)CN(CC(=O)O)c1cc(Cl)c(Oc2ccc(O)c(C(=O)c3ccc(Cl)cc3)c2)c(Cl)c1	Not fulfilled
CCOC(=O)N(CC(=O)O)c1cc(Cl)c(Oc2ccc(O)c(C(=O)c3ccc(C(C)(C)C)cc3)c2)c(Cl)c1	Fulfilled
CCOC(=O)N(CC(=O)O)c1cc(C)c(Oc2ccc(O)c(C(C)CC)c2)c(C)c1 (stereo not drawn)	Not fulfilled
CCC(C)c1cc(Oc2c(C)cc(N(CC(=O)O)CC(=O)O)cc2C)ccc1O (stereo not drawn)	Fulfilled
CC(C)NS(=O)(=O)c1cc(Oc2c(Cl)cc(N(CC(=O)O)C(=O)Oc3ccc(O)cc3)cc2Cl)ccc1O	Not fulfilled

###

# system under test: TR-β (Homo sapiens)
# protocol details: In vitro TR-β activity (in-house protocol)
# Experimental: Invitro TR-α & TR-β activities were determined as per in-house protocols and the results of representative compounds are provided in tables 1 & 2 below as a proof of the efficacies of the novel class of compounds disclosed above.
pEC50: −log10 of the molar value.

molecule	pEC50
O=C(O)CN(C(=O)Oc1ccc(O)cc1)c1cc(Br)c(Oc2ccc(O)c(C(=O)c3ccc(Cl)cc3)c2)c(Br)c1	7.89
O=C(O)CN(C(=O)Oc1ccc(O)cc1)c1cc(Cl)c(Oc2ccc(O)c(C(=O)c3ccc(Cl)cc3)c2)c(Cl)c1	7.83
O=C(O)CN(C(=O)Oc1ccc(O)cc1)c1cc(Cl)c(Oc2ccc(O)c(Cc3ccccc3)c2)c(Cl)c1	8.21
CCC(C)c1cc(Oc2c(Cl)cc(N(CC(=O)O)CC(=O)O)cc2Cl)ccc1O (stereo not shown)	7.55

###

# system under test: TR-α (Homo sapiens, UniProt P10827)
# protocol details: In vitro TR-α activity (in-house protocol)
# Format: cell-based
# measurement conditions: Conc. 100 nM
measured endpoint: TR-α Fold Induction w.r.t T3(100 nm)

compound	system under test	measured endpoint	data value
CCc1cc(Oc2c(Cl)cc(N(CC(=O)O)C(=O)Oc3ccc(O)cc3)cc2Cl)ccc1O	TR-α (Homo sapiens, UniProt P10827)	TR-α Fold Induction w.r.t T3(100 nm)	34.61
O=C(O)CN(C(=O)Oc1ccc(O)cc1)c1cc(Cl)c(Oc2ccc(O)c(S(=O)(=O)N3CCCCC3)c2)c(Cl)c1	TR-α (Homo sapiens, UniProt P10827)	TR-α Fold Induction w.r.t T3(100 nm)	99.00
CCOC(=O)N(CC(=O)O)c1cc(Cl)c(Oc2ccc(O)c(C(=O)c3ccc(C(C)(C)C)cc3)c2)c(Cl)c1	TR-α (Homo sapiens, UniProt P10827)	TR-α Fold Induction w.r.t T3(100 nm)	50.00
O=C(O)CN(C(=O)Oc1ccc(O)cc1)c1cc(Cl)c(Oc2ccc(O)c(S(=O)(=O)N3CCOCC3)c2)c(Cl)c1	TR-α (Homo sapiens, UniProt P10827)	TR-α Fold Induction w.r.t T3(100 nm)	12.30
CCOC(=O)N(CC(=O)O)c1cc(Cl)c(Oc2ccc(O)c(C(=O)c3ccc(Cl)cc3)c2)c(Cl)c1	TR-α (Homo sapiens, UniProt P10827)	TR-α Fold Induction w.r.t T3(100 nm)	21.47
CC(C)c1cc(Oc2c(Cl)cc(N(CC(=O)O)CC(=O)O)cc2Cl)ccc1O	TR-α (Homo sapiens, UniProt P10827)	TR-α Fold Induction w.r.t T3(100 nm)	50.99
CCOC(=O)N(CC(=O)O)c1cc(Cl)c(Oc2ccc(O)c(C(=O)c3ccc(F)cc3)c2)c(Cl)c1	TR-α (Homo sapiens, UniProt P10827)	TR-α Fold Induction w.r.t T3(100 nm)	39.66
CCC(C)c1cc(Oc2c(C)cc(N(CC(=O)O)CC(=O)O)cc2C)ccc1O (stereo not shown)	TR-α (Homo sapiens, UniProt P10827)	TR-α Fold Induction w.r.t T3(100 nm)	110.66
CC(C)NS(=O)(=O)c1cc(Oc2c(Cl)cc(N(CC(=O)O)C(=O)Oc3ccc(O)cc3)cc2Cl)ccc1O	TR-α (Homo sapiens, UniProt P10827)	TR-α Fold Induction w.r.t T3(100 nm)	23.05
Cc1cc(N(CC(=O)O)CC(=O)O)cc(C)c1Oc1ccc(O)c(C(C)C)c1	TR-α (Homo sapiens, UniProt P10827)	TR-α Fold Induction w.r.t T3(100 nm)	71.78
